Where do these numbers come from? They come from patent US9469650B2.

Measured Percent Growth, listed per entry for reference.
Tested on: PC-3
Assay: panel of 60 human tumor cell lines, growth inhibition (Prostate Cancer)
Details: PC-3; Log10 Concentration −6.0
Note: unit % is implicit; provide only the numeric part.

Query string: Query the reported Percent Growth for PC-3; item: C=C1C(=O)O[C@H]2[C@H]1CC/C(COC(=O)CCC(=O)N1CCC(C)CC1)=C\CC[C@@]1(C)O[C@@H]21
Result string: 94

Query string: And for C=C1C(=O)O[C@H]2[C@H]1CC/C(COC(=O)N1CCC(F)(F)CC1)=C\CC[C@@]1(C)O[C@@H]21 ?
Result string: 97

Query string: And for C=C1C(=O)O[C@H]2[C@H]1CC/C(COC(=O)NCCc1ccccn1)=C\CC[C@@]1(C)O[C@@H]21 ?
Result string: 97

Query string: And for C=C1C(=O)O[C@H]2[C@H]1CC/C(COC(=O)NCCN1CCCCC1)=C\CC[C@@]1(C)O[C@@H]21 ?
Result string: 94

Query string: And for C=C1C(=O)O[C@H]2[C@H]1CC/C(COC(=O)NC)=C\CC[C@@]1(C)O[C@@H]21 ?
Result string: 96

Query string: And for C=C1C(=O)O[C@H]2[C@H]1CC/C(COC(=O)N1CCN(C)CC1)=C\CC[C@@]1(C)O[C@@H]21 ?
Result string: 103
